Where these numbers come from: PubChem BioAssay (NCI)

tested on: MALME-3M melanoma; assay: NCI tumour cell line growth inhibition, 48 h; in the data active = GI50 below about 0.43 µM; inactive = the rest
Possible outcomes: active, inactive

- N#CCCN(CCCN(CCCN(C(=O)Nc1ccccc1)c1ccccc1)C(=O)Nc1ccccc1)C(=O)Nc1ccccc1: inactive
- C[C@]12CCc3sc(NCCc4ccccc4)nc3C1=CC[C@@H]1[C@@H]2CC[C@]2(C)C(=O)CC[C@@H]12: inactive
- CCCCC[C@H]1C/C=C2/C(=O)C=C[C@@H]2C/C=C\CCCC(=O)O[C@@H](CCCCC)C/C=C2/C(=O)C=C[C@@H]2C/C=C\CCCC(=O)O1: active
- CCn1cnc(C[C@H](NC(=O)[C@@H](NC(=O)Nc2cc(C(F)(F)F)cc(C(F)(F)F)c2)C(C)C)C(=O)OC)c1: inactive
- COc1ccc(-c2nc(/C=N/Nc3cc(C)nc4ccc(Cl)cc34)c(C)o2)cc1: inactive
- O=C(Nc1ccncc1)C(=O)c1cn(Cc2ccc(Cl)cc2)c2ccccc12: active
- CCOC(=O)c1c2c(n(Cc3ccc(Cl)cc3Cl)c1C)-c1nc[nH]c1C(=O)C2=O: inactive

###

Measured TGI accompanies every entry in the list below.
test system: PC-3 prostate; experiment: NCI tumour cell line growth inhibition, 48 h
Readout: TGI

* CC1OC(n2c3ccccc3c3c4c(c5c6ccccc6[nH]c5c32)C(=O)N(CCN[C@@H]2CCC[C@H]2N)C4=O)CC(O)C1O (stereo not given in full) | 6.13 µM
* C=CCOC(=O)NC1C(OC(C)[C@@H](NC(=O)OCc2ccccc2)C(=O)OC(C)(C)C)OC(COC(C)=O)C(OC(C)=O)C1OC(C)=O (stereo not given in full) | > 100 µM
* OCC(O)C(Cl)CCl (stereo not given) | > 100 µM
* Cn1c2ccc3cc2c(=S)c2cc(ccc21)OCCOCCOCCOCCOCCO3 | > 10 µM
* NC(=O)c1ccccc1Nc1ccc2nnc(-c3ccncc3)n2n1 | 30.3 µM
* Cn1c(O)c(C=Nc2ccccc2[N+](=O)[O-])c(=O)n(C)c1=O | > 100 µM
* COC(=O)C1CN=CN1CCc1ccccc1 (stereo not given) | > 100 µM
* CCN(Cc1ccc(F)cc1)c1ccc(CO)c(F)c1 | 94.6 µM
* CC(C)(C)c1cc(C2=NNC(c3ccccc3)C2)cc(C(C)(C)C)c1O (stereo not given) | 27.7 µM
* O=C(NCCNCCCNC(=O)c1cc(-c2ccccc2)nc2ccccc12)c1cccc(O)c1O | > 100 µM

###

tested on: OVCAR-5 ovarian; test: NCI tumour cell line growth inhibition, 48 h
Readout: TGI

- CNC(=O)OCc1c(CO)nc(SC)n1C: > 100 µM
- Cc1c(N2C(=O)CS(=O)(=O)C2c2cccc(Oc3ccccc3)c2)c(=O)n(-c2ccccc2)n1C (stereo unspecified): > 100 µM
- COc1cc(NC(C)CCCN)c2ncccc2c1 (stereo unspecified): > 100 µM
- CN(C)CC(CC1=C(CC(CN(C)C)N(C)C)CCC1)N(C)C (stereo unspecified): > 100 µM
- CCn1cnc(C[C@H](NC(=O)[C@@H](NC(=O)Nc2cc(C(F)(F)F)cc(C(F)(F)F)c2)C(C)C)C(=O)OC)c1: > 10 µM
- CC(C)=CCC/C(=C/CC/C(=C\CCc1ccoc1)C(=O)O)C(=O)O: > 100 µM
- CCC1CN(C(=O)c2ccccc2)C(Cc2c[nH]c3ccccc23)C(=O)C1CC(=O)OC (stereo unspecified): > 100 µM
- COc1ccc2c(c1)[nH]c1c(/C=C/c3ccccc3)nccc12: 30.5 µM
- Nc1ccccc1S(=O)(=O)c1ccccc1: > 100 µM
- COc1c(O)cc2oc(-c3ccc(O)cc3)cc(=O)c2c1O: > 100 µM
- C1COCCN1.C1COCCN1.NC1CCCCC1N.[Cl-].[Pt+2] (stereo unspecified): > 100 µM

###

test system: MDA-N; experiment: NCI tumour cell line growth inhibition, 48 h
Readout: TGI (µM)

• CC(=O)O[C@H]1C(=O)[C@@]2(C)[C@H]([C@H](OC(=O)c3ccccc3)[C@]3(O)C[C@H](OC(=O)[C@H](O)[C@@H](NC(=O)c4cccc(N=[N+]=[N-])c4)c4ccccc4)C(C)=C1C3(C)C)[C@]1(OC(C)=O)CO[C@@H]1C[C@@H]2O = 0.00735
• O=S(=O)(O)C(=Nc1cccc(Cc2ccccc2)c1)Nc1cccc(Cc2ccccc2)c1 = 47.2
• Cc1ccc(NC2=CC(=O)C(NO)c3ccccc32)cc1 (centres undefined) = 6.75

###

Measured TGI accompanies every entry in the list below.
tested on: DMS 273 small cell lung; assay: NCI tumour cell line growth inhibition, 48 h
Readout: TGI

* C=CCC(N(C)C(=O)[C@H](Cc1ccccc1)NC(=O)OCc1ccccc1)P(=O)(Oc1ccccc1)Oc1ccccc1 (stereo not given in full) | > 100 µM
* CN(C)C(=S)/N=c1\ssc(=S)n1Cc1cccnc1 | > 100 µM
* CCSc1nc2cccc([N+](=O)[O-])c2n1CC | > 100 µM
* CN(C)CC(CC1=C(CC(CN(C)C)N(C)C)CCC1)N(C)C (stereo not given) | > 100 µM
* CC(C)CCCC(C)[C@H]1CCC2[C@@H]3CCC4Nc5nocc5C[C@]4(C)C3CC[C@@]21C (stereo not given in full) | 37.3 µM

###

system: MDA-N; assay: NCI tumour cell line growth inhibition, 48 h
Readout: log10(TGI) (log10 of the value in µM)

* O=C(O)C1OC1(c1cccc(Cl)c1)c1ccccc1Cl (stereo not given) | 1.82
* Nc1cccc(/C=C/C(=O)N2CCN(CCOC(c3ccccc3)c3ccccc3)CC2)c1 | 1.56
* COc1ccc(C2CC(C)(O)Oc3cc4c(cc32)OCO4)cc1 (stereo not given) | 1.56
* CC1OC(OC2C[C@](O)(C(=O)CF)Cc3c(O)c4c(c(O)c32)C(=O)c2ccccc2C4=O)CC(N)C1O (stereo not given in full) | -0.48
* Clc1cc2c(cc1Cl)CC(NCCN1CCCC1)CC2 (stereo not given) | 1.16

###

test system: M14 melanoma; experiment: NCI tumour cell line growth inhibition, 48 h
Measured GI50 accompanies every entry in the list below.
Readout: GI50

* C=C1/C(=C\C=C2/CCC[C@]3(C)[C@@H]([C@H](C)CCCC(C)(C)O)CC[C@@H]23)C[C@@H](OC(=O)CBr)C[C@@H]1O | 2.71 µM
* COc1cccc(-n2nc(C)c3c(N/N=C(\C)c4ccncc4)ncnc32)c1 | > 25 µM
* CCN(Cc1ccc(F)cc1)c1ccc(CO)c(F)c1 | 20.4 µM
* COC1/C=C/C(C)C(C(C)C(OC)C(C)CCC(=O)C(C)C(C/C=C/N(C)C=O)OC)OC(=O)/C=C/C=C(\C)CC(OC)CC2=CC(=O)O[C@H](C2)C(C)C(OC)CC(OC)/C=C/C(C)C(OC)C1 (some centres undefined) | 0.0215 µM
* CN[C@H](C#Cc1c(F)ccc2c1/C(=C/c1[nH]ccc1OC)C(=O)N2)CO | 0.403 µM
* Cc1cc(C(=C2C=CC(=Nc3ccccc3)C=C2)c2ccc(Nc3ccccc3)cc2)ccc1N | 0.286 µM
* O=c1ccn(C2CC(O)C(CO)O2)c(=O)[nH]1 (centres undefined) | > 5000 µM
* O=c1cc(-c2ccccc2F)[nH]c2ccc(N3CCCC3)cc12 | < 0.001 µM
* CCCCCCCCC/C=C/C=C/C(=O)NCC(=O)NC1C(O)C(O)C(Nc2ncnc3nc[nH]c23)OC1C(O)CO (centres undefined) | 0.0248 µM
* O=C1C(N2CC2)=C(N2CC2)C(=O)C(N2CC2)=C1N1CC1 | < 0.0211 µM
* COc1ccc(-c2nc(/C=N/Nc3cc(C)nc4ccc(Cl)cc34)c(C)o2)cc1 | 1.74 µM
* COC1=CC(c2ccc[nH]2)=N/C1=C\c1[nH]c(C)c(C(=O)CCCCC(=O)NC(C)(C)C)c1C | 1.62 µM
* O=C(Nc1cccc(-n2cc(-c3ccncc3)c(-c3cc(O)cc(Cl)c3)n2)c1)Nc1ccc(Cl)c(C(F)(F)F)c1 | 1.72 µM
* Cc1ccc(C(CC(=O)c2ccccc2)C2C(=O)NC(=O)NC2=O)cc1 (centres undefined) | > 100 µM

###

system: K-562 leukemia; assay: NCI tumour cell line growth inhibition, 48 h
Measured TGI accompanies every entry in the list below.
Readout: TGI

• CC1(N)CCN(c2cccnc2NC(=O)c2nc(-c3ncccc3C(F)(F)F)cnc2N)CC1 = > 100 µM
• COc1cc([C@@H]2c3cc4c(cc3[C@@H](OC(=O)c3ccc(N)cc3)C3COC(=O)[C@@H]32)OCO4)cc(OC)c1O (some centres undefined) = > 95 µM
• CN(C)C(=S)/N=c1\ssc(=S)n1Cc1ccccc1 = 12.5 µM
• C=C1/C(=C\C=C2/CCC[C@]3(C)[C@@H]([C@H](C)CCCC(C)(C)O)CC[C@@H]23)C[C@@H](OC(=O)CBr)C[C@@H]1O = > 33.9 µM
• COc1cc(-c2cc(-c3ccccc3)nc(-c3c(OC)ccc4c(C)cc(=O)oc34)c2)cc(OC)c1OC = > 100 µM
• O=c1cc(-c2ccccc2F)[nH]c2ccc(N3CCCC3)cc12 = > 100 µM
• CN1CCN(c2ncc3c(n2)sc2c(=O)n(-c4ccccc4)cnc23)CC1 = > 100 µM
• Cc1cc2c(C)nn(Cc3ccccc3)c2c(C(N)=O)c1C = > 100 µM
• COc1cc2c3c(n(CCCCN)c(=O)c2cc1OC)-c1cc2c(cc1C3=O)OCO2 = 2.17 µM
